- Test system: OVCAR-8 ovarian
- method summary: NCI-60 one-dose screen, 48 h
- condition description: 10 µM unless noted
Compounds without any hit were thinned out: in the full panel of roughly 83,000, 20% have a hit. Calls of active or inactive are those of the source. Rule for the calls: active = growth percent below 10; inactive = the rest.
Give your call using only these classes: 1.0 = active, 0.0 = inactive

Observe how each entry below is paired with its result.
{"columns": ["molecule", "class assignment"],
 "data": [
  ["c1ccc(-c2cn3ccnc3c(-c3ccc4ncn(C5CCCCC5)c4c3)n2)cc1", 0.0],
  ["C/C(=N\\Nc1ccc(Cl)cn1)c1ccccn1", 0.0]
]}

IN: # outcome recorded in this test, key = COC(=O)/C=C/c1cc(O)c2oc(-c3ccc(O)c(O)c3)c(C(=O)OC)c2c1
OUT: 0.0

IN: # outcome recorded in this test, key = CCOC(=O)c1c(C)oc2ncnc(Nc3ccc(NC(=O)Nc4cccc(Cl)c4)cc3)c12
OUT: 0.0

IN: # outcome recorded in this test, key = c1ccc2[nH]c(-c3ccc(OCCCCCOc4ccc(-c5nc6ccccc6[nH]5)cc4)cc3)nc2c1
OUT: 1.0
